biological target: recombinant human kinase domain of TYK2 (Homo sapiens (Human)); test: JAK Caliper enzyme assay at 1 mM ATP (TYK2); format: biochemical; conditions: 1 mM ATP; read-out: IC50 (nM) TYK2;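 further: microfluidic mobility-shift readout of synthetic peptide phosphorylation by TYK2, tuned to 20–30% conversion at room temperature, reaction stopped with EDTA, DMSO-only wells as uninhibited baseline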
Sequence (P29597 897-1176): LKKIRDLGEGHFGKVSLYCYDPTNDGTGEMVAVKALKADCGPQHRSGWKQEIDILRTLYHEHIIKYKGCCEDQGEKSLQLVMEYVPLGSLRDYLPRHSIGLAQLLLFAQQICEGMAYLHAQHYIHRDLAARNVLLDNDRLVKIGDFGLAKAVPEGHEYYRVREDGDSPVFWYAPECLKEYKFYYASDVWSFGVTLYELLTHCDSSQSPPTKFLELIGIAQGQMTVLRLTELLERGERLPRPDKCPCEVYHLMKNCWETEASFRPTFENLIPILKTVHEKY
# note: boundary value 90 nM maps to no (0); IC50 below it maps to yes (1)

compound	class-assignment
CC(CC#N)N1[C@@H]2CC[C@H]1CN(c1ccnc(Nc3cnn(C)c3)n1)C2 (stereo partly shown) [Example 80]	yes (1)
O=C(N[C@@]12C[C@@H]1CN(c1nc(Nc3cnn(CCO)c3)ncc1Cl)C2)C1CC1	yes (1)
Cn1cc(Nc2nccc(N3C[C@H]4CC[C@@H](C3)N4C3CN(S(C)(=O)=O)C3)n2)cn1	yes (1)
O=C(C1CC1)N1[C@@H]2CC[C@H]1CN(c1ccnc(Nc3cnsc3)n1)C2	no (0)
Cn1cc(Nc2nccc(N3C[C@H]4CC[C@@H](C3)N4S(C)(=O)=O)n2)cn1	no (0)
O=C([C@@H]1CC1(F)F)N1[C@@H]2CC[C@H]1CN(c1ccnc(Nc3cnc(N4CC(O)C4)c(F)c3)n1)C2	yes (1)
Cn1cc(Nc2nccc(N3C[C@H]4CC[C@@H](C3)N4C[C@H]3CC3(F)F)n2)cn1	no (0)
CNC(=O)c1ncc(Nc2ncc(F)c(N3C[C@@H]4[C@H](C)[C@]4(NC(=O)C4CC4)C3)n2)cc1C	no (0)
O=C(N[C@]12C[C@H]1CN(c1nc(Nc3cnn(CCO)c3)ncc1Cl)C2)C1CC1	no (0)
Cn1cc(Nc2nccc(N3C[C@H]4CC[C@@H](C3)N4C(=O)[C@@H]3C[C@@H]3F)n2)cn1	no (0)
CC(CC#N)N1[C@@H]2CC[C@H]1CN(c1ccnc(Nc3cn[nH]c3)n1)C2 (stereo partly shown)	yes (1)
O=C(C1CC1)N1[C@@H]2CC[C@H]1CN(c1ccnc(Nc3cn[nH]c3)n1)C2	yes (1)
O=C([C@@H]1CC1(F)F)N1[C@@H]2CC[C@H]1CN(c1ccnc(Nc3cnc(N4CC[C@H](O)C4)c(F)c3)n1)C2	yes (1)
N#CC1(CN2[C@@H]3CC[C@H]2CN(c2ccnc(Nc4cn[nH]c4)n2)C3)CC1	no (0)
CCNC(=O)c1ccc(Nc2ncc(F)c(N3CC4CC(C3)N4C(=O)C(C)(C)F)n2)cc1C	yes (1)
Cn1cc(Nc2nccc(N3C[C@H]4CC[C@@H](C3)N4Cc3ccno3)n2)cn1	yes (1)

###

target: recombinant human kinase domain of JAK3 (Homo sapiens (Human)); assay: JAK Caliper enzyme assay at 1 mM ATP (JAK3); format: biochemical; conditions: 1 mM ATP; read-out: IC50 (nM) JAK3;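 further: microfluidic mobility-shift readout of synthetic peptide phosphorylation, percent product converted from peak heights, normalized to DMSO-only wells as uninhibited baseline, room temperature incubation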
Sequence (P52333 822-1111): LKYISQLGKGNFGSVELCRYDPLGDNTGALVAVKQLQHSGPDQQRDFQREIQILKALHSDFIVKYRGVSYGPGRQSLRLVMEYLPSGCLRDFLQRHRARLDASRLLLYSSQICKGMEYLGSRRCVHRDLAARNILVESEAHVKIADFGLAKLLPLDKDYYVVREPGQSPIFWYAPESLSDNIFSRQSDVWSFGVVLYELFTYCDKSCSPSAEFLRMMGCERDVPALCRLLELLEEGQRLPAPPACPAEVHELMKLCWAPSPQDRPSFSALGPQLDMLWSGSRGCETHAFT
assay-endpoint: IC50

compound	assay-endpoint	readout-value
O=C(C1CC1)N1[C@@H]2CC[C@H]1CN(c1nc(Nc3ccnnc3)ncc1F)C2 [Example 1]	IC50	> 10000 nM
CNC(=O)c1ncc(Nc2nccc(N3C[C@H]4CC[C@@H](C3)N4C(=O)C3CC3)n2)cc1C [Example 6]	IC50	> 10000 nM
Cc1cc(Nc2nccc(N3C[C@H]4CC[C@@H](C3)N4C(=O)C3CC3(F)F)n2)cnc1C(N)=O (stereo partly drawn) [Example 34]	IC50	> 10000 nM
O=C(C1CC1)N1[C@@H]2CC[C@H]1CN(c1ccnc(Nc3cnsc3)n1)C2 [Example 52]	IC50	> 10000 nM
Cc1cnc(Nc2ccc(OCCO)nc2)nc1N1C[C@H]2[C@@H](C)[C@@]2(NC(=O)[C@H]2C[C@@H]2C#N)C1 [Example 98]	IC50	2600 nM
Cn1cc(Nc2nccc(N3C[C@H]4CC[C@@H](C3)N4S(C)(=O)=O)n2)cn1 [Example 77]	IC50	> 10000 nM
Cn1cc(Nc2nccc(N3C[C@H]4CC[C@@H](C3)N4C[C@H]3C[C@@H]3C#N)n2)cn1 [Example 70]	IC50	> 10000 nM
CCNC(=O)c1ccc(Nc2nccc(N3CC4CC(C3)N4C(=O)C(C)(F)F)n2)cc1 [Example 114]	IC50	> 10000 nM
CNC(=O)c1ncc(Nc2nccc(N3C[C@H]4CC[C@@H](C3)N4C[C@@H]3CC3(F)F)n2)cc1C (single isomer, unassigned) [Example 67]	IC50	> 10000 nM
CCNC(=O)c1ccc(Nc2ncc(F)c(N3CC4CC(C3)N4C(=O)C(F)(F)F)n2)cc1C [Example 116]	IC50	9820 nM
C[C@@H]1[C@@H]2CN(c3nc(Nc4cnc([C@@H](C)O)c(Cl)c4)ncc3F)C[C@]12NC(=O)C1CC1 [Example 106]	IC50	> 10000 nM
CNC(=O)c1ncc(Nc2nccc(N3C[C@H]4CC[C@@H](C3)N4C(=O)[C@H]3C[C@@H]3F)n2)cc1C [Example 44]	IC50	> 10000 nM
O=C(N[C@@]12C[C@@H]1CN(c1nc(Nc3cnn(CCO)c3)ncc1Cl)C2)C1CC1 [Example 107]	IC50	1880 nM
Cn1cc(Nc2nccc(N3C[C@H]4CC[C@@H](C3)N4C3(CC#N)COC3)n2)cn1 [Example 84]	IC50	> 10000 nM
CNC(=O)c1ncc(Nc2nccc(N3C[C@H]4CC[C@@H](C3)N4C(=O)[C@@H]3CC3(F)F)n2)cc1C (single isomer, unassigned) [Example 33]	IC50	9280 nM

###

test system: interferon alpha signalling (TYK2 and JAK1), STAT3 phosphorylation; test: Human whole blood INFα induced STAT3 phosphorylation assay; assay type: cell-based; settings: compound 60 minutes at 37° C., IFNα 5000 U/ml for 15 minutes, pSTAT3 in lymphocyte population by flow cytometry, read-out: HWB IFN alpha IC50;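 further: flow cytometry with anti-pSTAT3 staining, signal as percent-positive × mean fluorescence, baseline from unstimulated wells, 11-point dilution series, IC50 as inhibition of pSTAT3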
Overview of recorded IC50 for various compounds
assay-endpoint: IC50

compound	target-system	assay-endpoint	readout-value
Cn1cc(Nc2nccc(N3C[C@H]4CC[C@@H](C3)N4Cc3nccs3)n2)cn1 [Example 57]	interferon alpha signalling (TYK2 and JAK1), STAT3 phosphorylation	IC50	0.338 µM
CCNC(=O)N1[C@@H]2CC[C@H]1CN(c1ccnc(Nc3cn[nH]c3)n1)C2 [Example 5]	interferon alpha signalling (TYK2 and JAK1), STAT3 phosphorylation	IC50	0.105 µM
Cn1cc(Nc2nccc(N3C[C@H]4CC[C@@H](C3)N4C[C@@H]3CC3(F)F)n2)cn1 [Example 64]	interferon alpha signalling (TYK2 and JAK1), STAT3 phosphorylation	IC50	0.071 µM
Cn1cc(Nc2nccc(N3C[C@H]4CC[C@@H](C3)N4C3(CC#N)CN(S(C)(=O)=O)C3)n2)cn1 [Example 83]	interferon alpha signalling (TYK2 and JAK1), STAT3 phosphorylation	IC50	0.085 µM
Cn1cc(Nc2nccc(N3C[C@H]4CC[C@@H](C3)N4C3CC(C#N)C3)n2)cn1 (some centres unmarked) [Example 59]	interferon alpha signalling (TYK2 and JAK1), STAT3 phosphorylation	IC50	0.084 µM
Cn1cc(Nc2nccc(N3C[C@H]4CC[C@@H](C3)N4Cc3cnoc3)n2)cn1 [Example 58]	interferon alpha signalling (TYK2 and JAK1), STAT3 phosphorylation	IC50	0.158 µM
CCNC(=O)N1[C@@H]2CC[C@H]1CN(c1ccnc(Nc3cnc(C(=O)NC)c(F)c3)n1)C2 [Example 87]	interferon alpha signalling (TYK2 and JAK1), STAT3 phosphorylation	IC50	0.582 µM
CNC(=O)c1ncc(Nc2nccc(N3C[C@H]4CC[C@@H](C3)N4C(=O)C3CC3)n2)cc1Cl [Example 30]	interferon alpha signalling (TYK2 and JAK1), STAT3 phosphorylation	IC50	0.653 µM

###

target: recombinant human kinase domain of JAK2 (Homo sapiens (Human)); experiment: JAK Caliper enzyme assay at 1 mM ATP (JAK2); assay type: biochemical;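 further: microfluidic mobility-shift read-out of fluorescent synthetic peptide phosphorylation, percent product converted from peak heights, room temperature, DMSO-only wells as uninhibited baseline, inhibition curve fit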
Sequence (O60674 849-1124): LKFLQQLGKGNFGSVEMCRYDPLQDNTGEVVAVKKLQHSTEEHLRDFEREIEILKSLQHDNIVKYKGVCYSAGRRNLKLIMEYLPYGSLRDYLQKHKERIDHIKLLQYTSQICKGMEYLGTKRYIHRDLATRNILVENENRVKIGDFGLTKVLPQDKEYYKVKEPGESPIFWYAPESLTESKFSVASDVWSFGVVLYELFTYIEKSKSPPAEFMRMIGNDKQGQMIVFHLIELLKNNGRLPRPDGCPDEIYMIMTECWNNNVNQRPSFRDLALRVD
Grouping by measured IC50 is done with the following cut points: class A (below 400 nM), class B (400 nM to below 2000 nM), class C (2000 nM or more)

compound	class-assignment
Cn1cc(Nc2nccc(N3C[C@H]4CC[C@@H](C3)N4C(=O)C3(F)CC3)n2)cn1	class B
Cn1cc(Nc2nccc(N3C[C@H]4CC[C@@H](C3)N4C(=O)Nc3ccc(C(F)(F)F)cn3)n2)cn1	class C
CCNC(=O)c1ccc(Nc2ncc(F)c(N3C[C@H]4CC[C@@H](C3)N4C(=O)OC(C)(C)C)n2)cc1C	class A
CCNC(=O)c1ccc(Nc2ncc(F)c(N3C[C@H]4CC[C@@H](C3)N4C(=O)C(F)(F)F)n2)cc1C	class A
CNC(=O)c1ncc(Nc2ncc(F)c(N3C[C@H]4[C@@H](C)[C@@]4(NC(=O)C4CC4)C3)n2)cc1C	class C
Cn1cc(Nc2nccc(N3C[C@H]4CC[C@@H](C3)N4C3(CC#N)COC3)n2)cn1	class A
Cn1cc(Nc2nccc(N3C[C@H]4CC[C@@H](C3)N4Cc3ccns3)n2)cn1	class A
CC(CC#N)N1[C@@H]2CC[C@H]1CN(c1ccnc(Nc3cnn(C)c3)n1)C2 (stereo partly drawn) [Example 80]	class B
C[C@@H]1[C@@H]2CN(c3nc(Nc4cnc([C@@H](C)O)c(Cl)c4)ncc3F)C[C@]12NC(=O)C1CC1	class C
CCNC(=O)c1ccc(Nc2nccc(N3CC4CC(C3)N4C(=O)C(C)(F)F)n2)cc1	class B
O=C([C@H]1CC1(F)F)N1[C@@H]2CC[C@H]1CN(c1ccnc(Nc3cn[nH]c3)n1)C2	class C
Cn1cc(Nc2nccc(N3C[C@H]4CC[C@@H](C3)N4C(=O)[C@@H]3C[C@@H]3C#N)n2)cn1	class B
CNC(=O)c1ncc(Nc2nccc(N3C[C@H]4CC[C@@H](C3)N4[C@H]3C[C@H](C#N)C3)n2)cc1C (single isomer, unassigned)	class B
CNC(=O)c1ncc(Nc2nccc(N3C[C@H]4CC[C@@H](C3)N4C(=O)[C@@H]3CC3(F)F)n2)cc1Cl	class A
